ASSAY_DETAILS: UPLC/ESI-tqMS time profile of 2,6-DCQ and its degradation products in simulated seawater (pH 8.2, darkness); OH-DCQ formation
RUN_CONDITIONS: 2,6-DCQ degradation, pH 8.2, darkness; 12 h
Measured Peak area, listed per entry.
I only need the number, thanks.

Example molecules with recorded Peak area:
O=C1C=C(Cl)C(=O)C(Cl)=C1O [OH-DCQ, 3-hydroxyl-2,6-dichloro-1,4-benzoquinone] ... 24578
O=C1C=C(Cl)C(=O)C(OC2=C(Cl)C(=O)C(Cl)=CC2=O)=C1 ... 2308
O=C1C=C(Cl)C(=O)C=C1O [SIR 157, 3-hydroxyl-6-monochloro-1,4-benzoquinone] ... 4418

Exercise: Give the measured Peak area of O=C1C=C(Cl)C(=O)C(Cl)=C1 .
Solution: 140

* * *

ASSAY_DETAILS: UPLC/ESI-tqMS time profile of 2,6-DCQ and its degradation products in simulated seawater (pH 8.2, darkness); OH-DCQ formation
RUN_CONDITIONS: 2,6-DCQ degradation, pH 8.2, darkness; 0.5 h
RECORDED_ENDPOINT: Peak area
I only need the number, thanks.

O=C1C=C(Cl)C(=O)C(Cl)=C1 ... 43813
O=C1C=C(Cl)C(=O)C=C1O [SIR 157, 3-hydroxyl-6-monochloro-1,4-benzoquinone] ... 1291

Exercise: Give the measured Peak area of O=C1C=C(Cl)C(=O)C(OC2=C(Cl)C(=O)C(Cl)=CC2=O)=C1 .
Solution: 1172

Exercise: Give the measured Peak area of O=C1C=C(Cl)C(=O)C(Cl)=C1O [OH-DCQ, 3-hydroxyl-2,6-dichloro-1,4-benzoquinone] .
Solution: 13509

* * *

Measured Peak area, listed per entry.
ASSAY_DETAILS: UPLC/ESI-tqMS time profile of 2,6-DCQ and its degradation products in simulated seawater (pH 8.2, darkness); OH-DCQ formation
RUN_CONDITIONS: 2,6-DCQ degradation, pH 8.2, darkness; 16 h
I only need the number, thanks.

Example compounds with recorded Peak area:
O=C1C=C(Cl)C(=O)C=C1O [SIR 157, 3-hydroxyl-6-monochloro-1,4-benzoquinone] ... 4755
O=C1C=C(Cl)C(=O)C(Cl)=C1O [OH-DCQ, 3-hydroxyl-2,6-dichloro-1,4-benzoquinone] ... 24857
O=C1C=C(Cl)C(=O)C(OC2=C(Cl)C(=O)C(Cl)=CC2=O)=C1 ... 1379

Lab note: next compound to report on.
Exercise: Give the measured Peak area of O=C1C=C(Cl)C(=O)C(Cl)=C1 .
Solution: 0

* * *

ASSAY_DETAILS: UPLC/ESI-tqMS time profile of 2,6-DCQ and its degradation products in simulated seawater (pH 8.2, darkness); OH-DCQ formation
RUN_CONDITIONS: 2,6-DCQ degradation, pH 8.2, darkness; 3.5 h
Measured Peak area, listed per entry.
I only need the number, thanks.

O=C1C=C(Cl)C(=O)C(Cl)=C1O [OH-DCQ, 3-hydroxyl-2,6-dichloro-1,4-benzoquinone] ... 25650
O=C1C=C(Cl)C(=O)C(OC2=C(Cl)C(=O)C(Cl)=CC2=O)=C1 [SIR 333] ... 3524
O=C1C=C(Cl)C(=O)C=C1O [SIR 157, 3-hydroxyl-6-monochloro-1,4-benzoquinone] ... 2418

Lab note: next compound to report on.
Exercise: Give the measured Peak area of O=C1C=C(Cl)C(=O)C(Cl)=C1 [2,6-DCQ, 2,6-dichlorobenzoquinone] .
Solution: 9914.8

* * *

ASSAY_DETAILS: UPLC/ESI-tqMS time profile of 2,6-DCQ and its degradation products in simulated seawater (pH 8.2, darkness); OH-DCQ formation
RUN_CONDITIONS: 2,6-DCQ degradation, pH 8.2, darkness; 1.75 h
Method: A Waters UPLC system coupled with ESI-tqMS was used to characterize the degradation products of 2,6-DCQ. The UPLC separation was performed using an HSS T3 column (100 × 2.1 mm, 1.8 μm particle size, Waters) with a column temperature of 35 °C. […] The second aliquot was subjected to analysis of total organic halogen to quantify the collected OH-DCQ. […] The chloride ion concentration was determined using an ICS-3000 ion chromatography system (Dionex). […]
RECORDED_ENDPOINT: Peak area
I only need the number, thanks.

Exercise: Give the measured Peak area of O=C1C=C(Cl)C(=O)C(Cl)=C1 [2,6-DCQ, 2,6-dichlorobenzoquinone] .
Solution: 24446.8

Exercise: Give the measured Peak area of O=C1C=C(Cl)C(=O)C(Cl)=C1O [OH-DCQ, 3-hydroxyl-2,6-dichloro-1,4-benzoquinone] .
Solution: 19823

Exercise: Give the measured Peak area of O=C1C=C(Cl)C(=O)C=C1O [SIR 157, 3-hydroxyl-6-monochloro-1,4-benzoquinone] .
Solution: 1891

Exercise: Give the measured Peak area of O=C1C=C(Cl)C(=O)C(OC2=C(Cl)C(=O)C(Cl)=CC2=O)=C1 [SIR 333] .
Solution: 2905

* * *

ASSAY_DETAILS: UPLC/ESI-tqMS time profile of 2,6-DCQ and its degradation products in simulated seawater (pH 8.2, darkness); OH-DCQ formation
RUN_CONDITIONS: 2,6-DCQ degradation, pH 8.2, darkness; 6 h
Measured Peak area, listed per entry.
I only need the number, thanks.

Example compounds with recorded Peak area:
O=C1C=C(Cl)C(=O)C(Cl)=C1O [OH-DCQ, 3-hydroxyl-2,6-dichloro-1,4-benzoquinone] ... 26995
O=C1C=C(Cl)C(=O)C(Cl)=C1 [2,6-DCQ, 2,6-dichlorobenzoquinone] ... 2396.8

Exercise: Give the measured Peak area of O=C1C=C(Cl)C(=O)C=C1O [SIR 157, 3-hydroxyl-6-monochloro-1,4-benzoquinone] .
Solution: 3514

Exercise: Give the measured Peak area of O=C1C=C(Cl)C(=O)C(OC2=C(Cl)C(=O)C(Cl)=CC2=O)=C1 [SIR 333] .
Solution: 3706

* * *

ASSAY_DETAILS: UPLC/ESI-tqMS time profile of 2,6-DCQ and its degradation products in simulated seawater (pH 8.2, darkness); OH-DCQ formation
RUN_CONDITIONS: 2,6-DCQ degradation, pH 8.2, darkness; 2.75 h
Measured Peak area, listed per entry.

O=C1C=C(Cl)C(=O)C=C1O [SIR 157, 3-hydroxyl-6-monochloro-1,4-benzoquinone] ... 2115
O=C1C=C(Cl)C(=O)C(OC2=C(Cl)C(=O)C(Cl)=CC2=O)=C1 [SIR 333] ... 3558
O=C1C=C(Cl)C(=O)C(Cl)=C1O [OH-DCQ, 3-hydroxyl-2,6-dichloro-1,4-benzoquinone] ... 23670

Lab note: next compound to report on.
Exercise: Give the measured Peak area of O=C1C=C(Cl)C(=O)C(Cl)=C1 [2,6-DCQ, 2,6-dichlorobenzoquinone] .
Solution: 15608.6

* * *

ASSAY_DETAILS: UPLC/ESI-tqMS time profile of 2,6-DCQ and its degradation products in simulated seawater (pH 8.2, darkness); OH-DCQ formation
RUN_CONDITIONS: 2,6-DCQ degradation, pH 8.2, darkness; 24 h
RECORDED_ENDPOINT: Peak area
I only need the number, thanks.

Example molecules with recorded Peak area:
O=C1C=C(Cl)C(=O)C(OC2=C(Cl)C(=O)C(Cl)=CC2=O)=C1 ... 463
O=C1C=C(Cl)C(=O)C(Cl)=C1 ... 0
O=C1C=C(Cl)C(=O)C(Cl)=C1O [OH-DCQ, 3-hydroxyl-2,6-dichloro-1,4-benzoquinone] ... 23064

Lab note: next molecule to report on.
Exercise: Give the measured Peak area of O=C1C=C(Cl)C(=O)C=C1O [SIR 157, 3-hydroxyl-6-monochloro-1,4-benzoquinone] .
Solution: 4289

* * *

ASSAY_DETAILS: Degradation in seawater with simulated solar irradiation
RUN_CONDITIONS: buffer, pH 6.2
RECORDED_ENDPOINT: half-life at 10 mg L−1
# output: number + unit

Exercise: Give the measured half-life at 10 mg L−1 of O=C1C=C(Cl)C(=O)C(Cl)=C1 [2,6-DCQ, 2,6-dichlorobenzoquinone] .
Solution: 4.13 h

* * *

Measured Peak area, listed per entry.
ASSAY_DETAILS: UPLC/ESI-tqMS time profile of 2,6-DCQ and its degradation products in simulated seawater (pH 8.2, darkness); OH-DCQ formation
RUN_CONDITIONS: 2,6-DCQ degradation, pH 8.2, darkness; 18 h

Example molecules with recorded Peak area:
O=C1C=C(Cl)C(=O)C(OC2=C(Cl)C(=O)C(Cl)=CC2=O)=C1 ... 1089
O=C1C=C(Cl)C(=O)C(Cl)=C1O [OH-DCQ, 3-hydroxyl-2,6-dichloro-1,4-benzoquinone] ... 23474
O=C1C=C(Cl)C(=O)C(Cl)=C1 ... 0

Lab note: next molecule to report on.
Exercise: Give the measured Peak area of O=C1C=C(Cl)C(=O)C=C1O [SIR 157, 3-hydroxyl-6-monochloro-1,4-benzoquinone] .
Solution: 4648
